target-system: T1, TNFR1 (Homo sapiens, UniProt P19438)
T1 chain: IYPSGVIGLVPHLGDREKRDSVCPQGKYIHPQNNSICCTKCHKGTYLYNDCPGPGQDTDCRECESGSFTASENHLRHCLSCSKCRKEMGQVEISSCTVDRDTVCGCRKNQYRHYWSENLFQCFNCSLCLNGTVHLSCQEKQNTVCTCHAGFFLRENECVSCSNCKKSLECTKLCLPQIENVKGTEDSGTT
test-details: yeast display SC50
Catalogue of binders with associated apparent Kd (screen)
Value expressed in nM; do not type the unit.

L24E (designed binder) MTLQELLREEALRRAEAEAFRYAEELLAEKFPEQKEYLLDLAEEIESQIRSLSGVDVEDVRKFLDKEWAWVKELLAEHPAELAEVEAARAARLAELRAEVEAKVAA    0.869
F63W (designed binder) MTLQELLREEALRRAEAEAFRYALELLAEKFPEQKEYLLDLAEEIESQIRSLSGVDVEDVRKWLDKEWAWVKELLAEHPAELAEVEAARAARLAELRAEVEAKVAA    0.869
E95Y (designed binder) MTLQELLREEALRRAEAEAFRYALELLAEKFPEQKEYLLDLAEEIESQIRSLSGVDVEDVRKFLDKEWAWVKELLAEHPAELAEVEAARAARLAYLRAEVEAKVAA    0.718

Memo: K103Y (designed binder) MTLQELLREEALRRAEAEAFRYALELLAEKFPEQKEYLLDLAEEIESQIRSLSGVDVEDVRKFLDKEWAWVKELLAEHPAELAEVEAARAARLAELRAEVEAYVAA , reported apparent Kd (screen): 0.869
